Bliss excess overview
Test system: 769-P (Kidney Carcinoma);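 also: after 72 h of two-drug dosing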
Experiment: Bliss excess, mean over the matrix (fraction); higher = more synergy
Measurement Label: Bliss excess

[[record]]
compound = "CC1(C)CCC(CN2CCN(c3ccc(C(=O)NS(=O)(=O)c4ccc(NCC5CCOCC5)c([N+](=O)[O-])c4)c(Oc4cnc5[nH]ccc5c4)c3)CC2)=C(c2ccc(Cl)cc2)C1 [Venetoclax] + C=CCn1c(=O)c2cnc(Nc3ccc(N4CCN(C)CC4)cc3)nc2n1-c1cccc(C(C)(C)O)n1 [AZD1775] (first compound max 1 µM, partner max 1 µM)"
measurement_label = "Bliss excess"
reported_measurement = -0.0081

[[record]]
compound = "CCN(CCO)CCCOc1ccc2c(Nc3cc(CC(=O)Nc4cccc(F)c4)[nH]n3)ncnc2c1 [AZD2811] + C[C@@H]1COCCN1C2=NC(=NC(=C2)C3(CC3)[S@](=N)(=O)C)C4=C5C=CNC5=NC=C4 [AZD6738] (first compound max 1 µM, 7x7, partner max 10 µM)"
measurement_label = "Bliss excess"
reported_measurement = -0.0107

[[record]]
compound = "Cn1cnc2c(F)c(Nc3ccc(Br)cc3Cl)c(C(=O)NOCCO)cc21 [Selumetinib] + CCN(CCO)CCCOc1ccc2c(Nc3cc(CC(=O)Nc4cccc(F)c4)[nH]n3)ncnc2c1 [AZD2811] (first compound max 10 µM, 7x7, partner max 1 µM)"
measurement_label = "Bliss excess"
reported_measurement = -0.0062

[[record]]
compound = "Cc1nc(-c2cn3c(n2)-c2ccc(-c4cnn(C(C)(C)C(N)=O)c4)cc2OCC3)n(C(C)C)n1 [Taselisib] + O=C(Nc1ccc2[nH]nc(-c3ccncc3)c2c1)[C@@H]1CCN(CC(=O)N2CCN(c3ccc(-c4ncccn4)cc3)CC2)C1 [SCH772984] (first compound max 10 µM, 7x7, partner max 5 µM)"
measurement_label = "Bliss excess"
reported_measurement = 0.0852

[[record]]
compound = "COc1nnc2ccc(N3CCC(c4ccc(OCCN5CCN(C)C(=O)[C@H]5C)cc4)CC3)nn12 [AZD5153] + C[C@@H]1COCCN1C2=NC(=NC(=C2)C3(CC3)[S@](=N)(=O)C)C4=C5C=CNC5=NC=C4 [AZD6738] (first compound max 1 µM, 7x7, partner max 10 µM)"
measurement_label = "Bliss excess"
reported_measurement = 0.0196

[[record]]
compound = "O=C(c1cc(Cc2n[nH]c(=O)c3ccccc23)ccc1F)N1CCN(C(=O)C2CC2)CC1 [Olaparib] + COc1nnc2ccc(N3CCC(c4ccc(OCCN5CCN(C)C(=O)[C@H]5C)cc4)CC3)nn12 [AZD5153] (first compound max 10 µM, 7x7, partner max 1 µM)"
measurement_label = "Bliss excess"
reported_measurement = -0.0374

[[record]]
compound = "Cc1cc2ncnn2cc1Nc1ncc2c(n1)n(C1CCOCC1)c(=O)n2C [AZD7648] + CN(C)CCCOc1ccc(-c2ccc3ncc4c(c3c2)n(C2CCOCC2)c(=O)n4C)cn1 [AZD0156] (first compound max 10 µM, 7x7, partner max 1 µM)"
measurement_label = "Bliss excess"
reported_measurement = -0.0086


====

The reader will find reported combination Emax values listed item by item below.
Tested on: EW-7 (Ewing's Sarcoma)
Experiment: combination Emax (second highest fraction inhibited in the dose matrix, 72 h); higher = more inhibition; extreme values may be limits of the assay
Measurement Label: combination Emax

[[record]]
molecule = "CN(C)CCCOc1ccc(-c2ccc3ncc4c(c3c2)n(C2CCOCC2)c(=O)n4C)cn1 [AZD0156] + C=CCn1c(=O)c2cnc(Nc3ccc(N4CCN(C)CC4)cc3)nc2n1-c1cccc(C(C)(C)O)n1 [AZD1775] (first compound max 1 µM, partner max 1 µM)"
tested_system = "EW-7 (Ewing's Sarcoma)"
reported_measurement = 0.884

[[record]]
molecule = "COc1nnc2ccc(N3CCC(c4ccc(OCCN5CCN(C)C(=O)[C@H]5C)cc4)CC3)nn12 [AZD5153] + CCN(CCO)CCCOc1ccc2c(Nc3cc(CC(=O)Nc4cccc(F)c4)[nH]n3)ncnc2c1 [AZD2811] (first compound max 1 µM, 7x7, partner max 1 µM)"
tested_system = "EW-7 (Ewing's Sarcoma)"
reported_measurement = 0.444

[[record]]
molecule = "Cc1c2c(nn1C)CSCc1cc(n(C)n1)CSc1cc(c3ccccc3c1)OCCCc1c(C(=O)O)n(C)c3c-2c(Cl)ccc13 [AZD5991] + C[C@@H]1COCCN1C2=NC(=NC(=C2)C3(CC3)[S@](=N)(=O)C)C4=C5C=CNC5=NC=C4 [AZD6738] (first compound max 1 µM, 7x7, partner max 10 µM)"
tested_system = "EW-7 (Ewing's Sarcoma)"
reported_measurement = 0.998

[[record]]
molecule = "COc1cccc(OCCCN)c1-c1cc(Nc2cnc(C#N)cn2)n[nH]1 [Prexasertib] + C[C@@H]1COCCN1C2=NC(=NC(=C2)C3(CC3)[S@](=N)(=O)C)C4=C5C=CNC5=NC=C4 [AZD6738] (first compound max 1 µM, 7x7, partner max 10 µM)"
tested_system = "EW-7 (Ewing's Sarcoma)"
reported_measurement = 0.971

[[record]]
molecule = "CC(=O)c1c(C)c2cnc(Nc3ccc(N4CCNCC4)cn3)nc2n(C2CCCC2)c1=O [Palbociclib] + CC1(C)CCC(CN2CCN(c3ccc(C(=O)NS(=O)(=O)c4ccc(NCC5CCOCC5)c([N+](=O)[O-])c4)c(Oc4cnc5[nH]ccc5c4)c3)CC2)=C(c2ccc(Cl)cc2)C1 [Venetoclax] (first compound max 10 µM, 7x7, partner max 1 µM)"
tested_system = "EW-7 (Ewing's Sarcoma)"
reported_measurement = 0.409

[[record]]
molecule = "NC1(C(=O)N[C@@H](CCO)c2ccc(Cl)cc2)CCN(c2ncnc3[nH]ccc23)CC1 [Capivasertib] + C[C@@H]1COCCN1C2=NC(=NC(=C2)C3(CC3)[S@](=N)(=O)C)C4=C5C=CNC5=NC=C4 [AZD6738] (first compound max 10 µM, 7x7, partner max 10 µM)"
tested_system = "EW-7 (Ewing's Sarcoma)"
reported_measurement = 1

[[record]]
molecule = "N#Cc1cnc(Nc2cc(NC[C@H]3CNCCO3)c(C(F)(F)F)cn2)cn1 [SRA737] + Nc1ccn([C@@H]2O[C@H](CO)[C@@H](O)C2(F)F)c(=O)n1 [Gemcitabine] (first compound max 10 µM, 7x7, partner max 0.3 µM)"
tested_system = "EW-7 (Ewing's Sarcoma)"
reported_measurement = 1

